Values from PubChem BioAssay (NCATS)

method notes: qHTS of pediatric cancer cell lines to identify multiple opportunities for drug repurposing: Primary screen for Rh18 cells (AID 1347102); also: nearly all actives have a fitted effect of over 65% in size; also: potency is read from the fitted curve at half-maximal effect
condition context: Rh18 rhabdomyosarcoma viability, CellTiter-Glo luminescence, 48 h; series mostly up to 46 µM
Results filed as inconclusive are left out. The source made the active and inactive calls. Calls follow the shape of the dose curve; as a rule, active = well fitted cell-killing curve with a large enough effect; inconclusive = small, poorly fitted or top-dose-only effect; inactive = flat fitted curve, though single readings scatter.

{"compound": "C[C@]12CCC(=O)C=C1CC[C@@H]1[C@@H]2[C@@H](O)C[C@@]2(C)[C@H]1CC[C@]2(O)C(=O)COC(=O)CCC(=O)O", "Potency": "inactive"}
{"compound": "C=CC[N+]1([C@H]2C[C@H]3[C@@H]4CC[C@H]5C[C@H](OC(C)=O)[C@@H](N6CCCCC6)C[C@]5(C)[C@H]4CC[C@]3(C)[C@H]2OC(=O)CC)CCCCC1", "Potency": "inactive"}
{"compound": "Nc1ccc(C(=O)OCC(O)CO)cc1 (stereo not given)", "Potency": "inactive"}
{"compound": "CCCCCCCCCCCCCCCC[n+]1ccccc1", "Potency": "7.5 µM (active)"}
{"compound": "Nc1ncnc2nc[nH]c12", "Potency": "inactive"}

* * *

Catalogue of max response values
Tested on: NIH3T3
method notes: Cytotoxic Profiling of Annotated Libraries Using Quantitative High-Throughput Screening (AID 1296008); also: % is scaled to controls: 0 for no effect and ±100 for the full control effect; nearly all actives have a fitted effect of over 60% in size
condition context: Five cell lines viability, CellTiter-Glo ATP luminescence, 48-72 h; active compounds read low
Inconclusive results are not listed.

{"compound": "O=c1[nH]sc2cc(Cl)ccc12", "measurement units": "%", "max response": -92.7}
{"compound": "O=[N+]([O-])c1cncn1CCN1CCOCC1", "measurement units": "%", "max response": 2.27}
{"compound": "O=C(O)CCC(=O)OC[C@@H](NC(=O)C(Cl)Cl)[C@H](O)c1ccc([N+](=O)[O-])cc1", "measurement units": "%", "max response": -0.147}
{"compound": "CC(=O)N(CC(=O)N(C)C)c1ccccc1", "measurement units": "%", "max response": 1.94}
{"compound": "N[C@@H](Cc1cc(I)c(O)c(I)c1)C(=O)O", "measurement units": "%", "max response": -12.4}
{"compound": "C[C@@H]1C[C@H]2[C@@H]3CCC4=CC(=O)C=C[C@]4(C)[C@@]3(F)[C@@H](O)C[C@]2(C)[C@@]1(O)C(=O)COC(=O)c1ccncc1", "measurement units": "%", "max response": -6.36}
{"compound": "C[N+]1(CC2COC(c3ccccc3)(c3ccccc3)O2)CCCCC1 (stereo not drawn)", "measurement units": "%", "max response": -38.8}
{"compound": "CC(C)(C)C(=O)OCOC(=O)C1N2C(=O)CC2S(=O)(=O)C1(C)C (stereo not drawn)", "measurement units": "%", "max response": 2.05}
{"compound": "CC(C)(Oc1ccc(Cl)cc1)C(=O)OCCCOC(=O)C(C)(C)Oc1ccc(Cl)cc1", "measurement units": "%", "max response": 1.4}
{"compound": "COc1cc(C=O)ccc1O", "measurement units": "%", "max response": -0.279}
{"compound": "Cc1cccc(N(C)C(=S)Oc2ccc3c(c2)C2CCC3C2)c1 (stereo not drawn)", "measurement units": "%", "max response": -24.5}
{"compound": "C/C(=N\\O)[C@@H](C)NCC(C)(C)CN[C@H](C)/C(C)=N/O", "measurement units": "%", "max response": -0.119}
{"compound": "N#C/C(=C1/SC[C@@H](c2ccc(Cl)cc2Cl)S1)n1ccnc1", "measurement units": "%", "max response": -5.57}

* * *

System: MKL-2
method notes: qHTS assay to identify novel small-molecules to repurpose for Merkel cell carcinoma treatment (AID 1296009); also: nearly all actives have a fitted effect of over 60% in size
condition context: MCC and control cell lines, CellTiter-Glo viability, 72 h; series mostly up to 46 µM
Source text: MCC is a rare and aggressive neuroendocrine skin cancer with limited treatment options. Approximately 80% of MCCs have the Merkel cell polyomavirus (MCPyV) DNA integrated into the host genome (virus-positive: VP-MCC) and viral oncogenes drive oncogenesis. The remaining MCCs are virus-negative (VN-MCC) and are caused by UV mutagenesis. […] Using cell viability as a readout (CellTiter-Glo assay) we found both overlapping and distinct drugs that can be repurposed for the treatment of VP-MCC and VN-MCC. […]
Results filed as inconclusive are left out. The source made the active and inactive calls. Calls follow the shape of the dose curve; as a rule, active = well fitted inhibition curve with a large enough effect; inconclusive = small, poorly fitted or top-dose-only effect; inactive = flat fitted curve, though single readings scatter.
Outcomes: true = active, false = inactive

{"molecule": "COC(=O)/C=C\\C(=O)OC", "answer label": "false"}
{"molecule": "Cc1ccc2c(Cl)cc(Cl)c(O)c2n1", "answer label": "false"}
{"molecule": "O=C1NC2CCCCN2C12CCN(CCCN1c3ccccc3CCc3ccc(Cl)cc31)CC2 (stereo not given)", "answer label": "true"}
{"molecule": "CCCCOC(=O)CCCCCCCCC(=O)OCCCC", "answer label": "false"}
{"molecule": "O=[N+]([O-])c1nccn1CO[C@@H](CO)[C@H](O)CO", "answer label": "false"}
{"molecule": "Cc1cccc(OCC(O)CNC(C)(C)C)c1C (stereo not given)", "answer label": "false"}
{"molecule": "OCCc1ccccc1", "answer label": "false"}
{"molecule": "COC(=O)c1cc(S(N)(=O)=O)ccc1OC", "answer label": "false"}
{"molecule": "Nc1cc(C(F)(F)F)ccc1S", "answer label": "true"}
{"molecule": "CO[C@@H]1[C@@H](OC)[C@H](C)[C@@](O)(CC(=O)O)O[C@H]1[C@H](C)[C@H]1O[C@@]2(CC[C@@](C)([C@H]3CC[C@@](C)([C@@H]4O[C@@H]([C@H]5O[C@](C)(O)[C@H](C)C[C@@H]5C)C[C@@H]4OC4C[C@H](OC)[C@@H](OC)[C@H](C)O4)O3)O2)C[C@H](O)[C@H]1C (stereo not given in full)", "answer label": "true"}

* * *

Tested on: CRL-7250
method notes: Cytotoxic Profiling of Annotated Libraries Using Quantitative High-Throughput Screening (AID 1296008); also: % is scaled to controls: 0 for no effect and ±100 for the full control effect; nearly all actives have a fitted effect of over 60% in size
condition context: Five cell lines viability, CellTiter-Glo ATP luminescence, 48-72 h; active compounds read low
Inconclusive results are not listed.

{"compound": "CN1Cc2cc(C(=O)N3CCC(C4CCNCC4)CC3)ccc2N[C@@H](CC(=O)O)C1=O", "measurement units": "%", "max response": -4.04}
{"compound": "COC(=O)C1=CO[C@@H](O)[C@@H]2C(CO)=CC[C@H]12", "measurement units": "%", "max response": 0.169}
{"compound": "CC1(C)S[C@@H]2[C@H](NC(=O)C(c3ccccc3)S(=O)(=O)O)C(=O)N2[C@H]1C(=O)O (stereo partly specified)", "measurement units": "%", "max response": 1.53}
{"compound": "Nc1ccc(C(=O)OCC(O)CO)cc1 (stereo unspecified)", "measurement units": "%", "max response": -0.994}
{"compound": "O=C(c1ccco1)N1CCNCC1", "measurement units": "%", "max response": -10.9}
{"compound": "C#CC(C)(CC)OC(=O)c1ccccc1C(=O)O (stereo unspecified)", "measurement units": "%", "max response": -9.5}
{"compound": "Oc1ccc(CCNCCCCCCNCCc2ccccc2)cc1O", "measurement units": "%", "max response": -8.57}
{"compound": "CCOC(=O)c1ccc(O)c(O)c1", "measurement units": "%", "max response": 2.32}
{"compound": "COc1ccc2cc(C=O)ccc2c1", "measurement units": "%", "max response": 3.03}
{"compound": "CN1C(CSCC(F)(F)F)Nc2cc(Cl)c(S(N)(=O)=O)cc2S1(=O)=O (stereo unspecified)", "measurement units": "%", "max response": -17.8}
{"compound": "CC(C)(C)CC(=O)OCC(=O)[C@@]1(O)CC[C@H]2[C@@H]3CCC4=CC(=O)C=C[C@]4(C)[C@H]3[C@@H](O)C[C@@]21C", "measurement units": "%", "max response": -1.84}
{"compound": "COc1cc(OC)nc(O[C@H](C(=O)O)C(OC)(c2ccccc2)c2ccccc2)n1", "measurement units": "%", "max response": 3.73}
{"compound": "CN(C)[C@@H]1C(=O)C(C(N)=O)=C(O)[C@@]2(O)C(=O)C3=C(O)c4c(O)cccc4C[C@H]3C[C@@H]12", "measurement units": "%", "max response": -0.669}
{"compound": "CCS(=O)(=O)c1ccc(OC)c(C(=O)OC)c1", "measurement units": "%", "max response": 0.361}
{"compound": "Cn1cc(S(C)=O)c(=O)c2ccc(F)cc21 (stereo unspecified)", "measurement units": "%", "max response": -2.16}
{"compound": "CC(C)=CCC/C(C)=C/CC/C(C)=C/CCC(=O)OC/C=C(\\C)CCC=C(C)C", "measurement units": "%", "max response": -7.77}
{"compound": "Cc1ccc(/C=N/n2c(-c3ccccc3)csc2=S)cc1", "measurement units": "%", "max response": -8.42}
{"compound": "CCCCCCOC(=O)NC(=N)c1ccc(NCc2nc3cc(C(=O)N(CCC(=O)OCC)c4ccccn4)ccc3n2C)cc1", "measurement units": "%", "max response": 2.91}
{"compound": "CCCc1ccc(OCC(=O)N2CCN(C(=O)COc3ccc(CCC)cc3OC)CC2)c(OC)c1", "measurement units": "%", "max response": -1.28}
{"compound": "CN1C(=O)CC(C)(c2ccccc2)C1=O (stereo unspecified)", "measurement units": "%", "max response": -0.376}
{"compound": "O=C(Nc1ccc(S(=O)(=O)N2CCOCC2)cc1)c1cc(Cl)ccc1NS(=O)(=O)c1ccc(Cl)s1", "measurement units": "%", "max response": -9.47}
{"compound": "CC(C)N(CCC(=O)c1ccc2ccccc2c1)Cc1ccccc1", "measurement units": "%", "max response": -24.3}
{"compound": "OCCCc1ccccc1", "measurement units": "%", "max response": -10.6}
{"compound": "CO[C@@]1(NC(=O)CSC[C@@H](N)C(=O)O)C(=O)N2C(C(=O)O)=C(CSc3nnnn3C)CS[C@@H]21", "measurement units": "%", "max response": 1.25}
{"compound": "CCCCCN(CCCOC)C(=O)C(CCC(=O)O)NC(=O)c1ccc(Cl)c(Cl)c1 (stereo unspecified)", "measurement units": "%", "max response": -0.363}
{"compound": "O=C(O)c1ccccc1Nc1cc(Cl)ccc1C(=O)O", "measurement units": "%", "max response": 2.83}
{"compound": "O=C(O)c1ccccc1S", "measurement units": "%", "max response": -0.928}
{"compound": "CC(C)C(=O)Nc1cccc(C(F)(F)F)c1", "measurement units": "%", "max response": 3.59}
{"compound": "Nc1ccc([N+](=O)[O-])c(C(F)(F)F)c1", "measurement units": "%", "max response": 1.39}
{"compound": "CCCC(=O)OCOC(=O)C1=C(C)NC(C)=C(C(=O)OC)C1c1cccc(Cl)c1Cl (stereo unspecified)", "measurement units": "%", "max response": 4.76}
{"compound": "CC(=O)N1CCN(c2ccc(O)cc2)CC1", "measurement units": "%", "max response": -1.56}
{"compound": "Cc1cc(=O)oc2cc(O[C@@H]3SC[C@@H](O)[C@H](O)[C@H]3O)ccc12", "measurement units": "%", "max response": -1.48}
{"compound": "OCCc1ccccc1", "measurement units": "%", "max response": 4.7}
{"compound": "CCCCOC(=O)CCCCCCCCC(=O)OCCCC", "measurement units": "%", "max response": 0.0544}
{"compound": "CC(=O)[C@@]1(O)CC[C@H]2[C@@H]3C[C@H](C)C4=CC(=O)CC[C@]4(C)[C@H]3CC[C@@]21C", "measurement units": "%", "max response": -14.2}
{"compound": "C[C@H]1C[C@H](O)c2ccsc2S1(=O)=O", "measurement units": "%", "max response": -0.46}
{"compound": "C#Cc1ccc(-c2ccccc2F)cc1", "measurement units": "%", "max response": -10.3}
{"compound": "CCOC(=O)CN1CCCC1=O", "measurement units": "%", "max response": 1.6}
{"compound": "CCOCCn1c(C2CCN(CCc3ccc(C(C)(C)C(=O)O)cc3)CC2)nc2ccccc21", "measurement units": "%", "max response": -0.215}
{"compound": "COCCc1ccc(OCC2CO2)cc1 (stereo unspecified)", "measurement units": "%", "max response": 1.12}
{"compound": "O=C(CS(=O)Cc1ccco1)NC/C=C\\COc1cc(CN2CCCCC2)ccn1 (stereo unspecified)", "measurement units": "%", "max response": -3.38}
{"compound": "Nc1c(I)cc(I)c(C(=O)N(CCC(=O)O)c2ccccc2)c1I", "measurement units": "%", "max response": 1.19}
{"compound": "Cc1coc2ccccc2c1=O", "measurement units": "%", "max response": -0.524}
{"compound": "CCCC(CCC)(C(=O)OCC)C(=O)OCC", "measurement units": "%", "max response": -5.21}
{"compound": "COc1ccccc1OCC1CNC(=O)O1 (stereo unspecified)", "measurement units": "%", "max response": -7.57}
{"compound": "CCOC(=O)OCC/C(SC(=O)OCC)=C(\\C)N(C=O)Cc1cnc(C)nc1N", "measurement units": "%", "max response": -3.12}
